Provide the recorded growth inhibition for the entries that follow.
System: SUDIPGXIII (diffuse intrinsic pontine glioma line)
Assay: growth inhibition (% activity, log2 RLU normalised to DMSO / staurosporine); higher = more growth inhibition
Conditions: 33 µM
Enter your answer as a number in %; do not include the unit.

Q: Given the compound C#CC1(O)CC[C@H]2[C@@H]3CCC4=CC(=O)CC[C@@H]4[C@H]3CC[C@@]21CC (some centres not stated) , what is its reported growth inhibition?
Result: 1.03

Q: Can you check "CCOC(=O)[C@H](CCc1ccccc1)N[C@@H](C)C(=O)N1CCC[C@H]1C(=O)O" next?
Result: -3.41

Q: Try this compound next: "CS(=O)(=O)Nc1ccc([N+](=O)[O-])cc1Oc1ccccc1"
Result: -2.23

Q: Quick one: "CCOC(=O)c1ccc(C#Cc2ccc3c(c2)C(C)(C)CCS3)nc1"
Result: 1.82

Q: Also, COC1C(O)CC(=O)OC(C)CC=CC=CC(OC2CCC(N(C)C)C(C)O2)C(C)CC(CC=O)C1OC1OC(C)C(OC2CC(C)(O)C(O)C(C)O2)C(N(C)C)C1O (configuration not stated) please.
Result: 0.183

Q: Param item: "O=C(O)Cc1cc(I)c(Oc2ccc(O)c(I)c2)c(I)c1"
Result: -14.4

Q: Same thing, different compound: CN(C)c1cc(NC(=O)CNC(C)(C)C)c(O)c2c1CC1CC3C(N(C)C)C(=O)C(C(N)=O)=C(O)C3(O)C(=O)C1=C2O (configuration not stated)
Result: 0.694

Q: Now try "CO[C@H]1/C=C/O[C@@]2(C)Oc3c(C)c(O)c4c(O)c(c5c(nc6cc(C)ccn65)c4c3C2=O)NC(=O)/C(C)=C\C=C\[C@H](C)[C@H](O)[C@@H](C)[C@@H](O)[C@@H](C)[C@H](OC(C)=O)[C@@H]1C" .
Result: -1.05

Q: Next compound: "CN1CCN(c2c(F)cc3c(=O)c(C(=O)O)cn(CCF)c3c2F)CC1"
Result: -2.39

Q: Now try "Nc1nc(=O)c2c([nH]1)NC[C@H](CNc1ccc(C(=O)N[C@@H](CCC(=O)O)C(=O)O)cc1)N2C=O" .
Result: 0.25

Q: Okay, and "CCC(=O)O[C@]1(C(=O)CCl)[C@@H](C)C[C@H]2[C@@H]3C[C@H](F)C4=CC(=O)C=C[C@]4(C)[C@@]3(F)[C@@H](O)C[C@@]21C" ?
Result: 1.38

Q: # repeat for "N[C@@H](Cc1cc(I)c(Oc2ccc(O)c(I)c2)c(I)c1)C(=O)O"
Result: 0.729

Q: And the next one, "Fc1ccc(C(c2ccc(F)cc2)N2CCN(C/C=C/c3ccccc3)CC2)cc1" ?
Result: 8.8

Q: Would you mind doing "COc1ccc2c(c1)c(CC(=O)OCC(=O)O)c(C)n2C(=O)c1ccc(Cl)cc1" as well?
Result: 1.16

Q: Same again, this time with COC(=O)C1=C(C)NC(C)=C(C(=O)OCCN2CCN(C(c3ccccc3)c3ccccc3)CC2)C1c1cccc([N+](=O)[O-])c1 (configuration not stated)
Result: 22

Q: Further, for "CCOc1ccc2ccccc2c1C(=O)N[C@@H]1C(=O)N2[C@@H]1SC(C)(C)[C@@H]2C(=O)O" ?
Result: 2.26

Q: Try this compound too: O=C(OCC(O)CO)c1ccccc1Nc1ccnc2cc(Cl)ccc12 (configuration not stated)
Result: 0.927

====

Test system: DIPGX7 (H3.3 K27M diffuse intrinsic pontine glioma line)
Assay: growth inhibition (% activity, log2 RLU normalised to DMSO / staurosporine); higher = more growth inhibition
Details: 33 µM
Give measured growth inhibition for each item. Keep answers brief.
Enter your answer as a number in %; do not include the unit.

Q: Can you share its growth inhibition? I mean this molecule: "O=C(O)C1=CO[C@@H](O[C@@H]2O[C@H](CO)[C@@H](O)[C@H](O)[C@H]2O)[C@@H]2C(CO)=CC[C@H]12"
Result: -0.0942

Q: What do you get for CC1CC(OC(=O)C(O)c2ccccc2)CC(C)(C)C1 (stereo unspecified) ?
Result: 0.84

Q: What do you have for "CC(/C=C1\SC(=S)N(CC(=O)O)C1=O)=C\c1ccccc1" ?
Result: -1.21

Q: Now give it for "CCCN1CCCC[C@H]1C(=O)Nc1c(C)cccc1C" too.
Result: 0.26

Q: Let us now turn to "CCCCCCCCCCCCCCCCCCCCCCO"
Result: -0.407

Q: Would you kindly repeat that for CC1(C(=O)O)CCC2(C)CCC3(C)C(=CC(=O)C4C5(C)CCC(OC6OC(C(=O)O)C(O)C(O)C6OC6OC(C(=O)O)C(O)C(O)C6O)C(C)(C)C5CCC43C)C2C1 (stereo unspecified) ?
Result: -1.5

Q: And then "NC(=O)N1c2ccccc2CC(=O)c2ccccc21" , what is it?
Result: -2.16

Q: Also need "C[C@@H]1[C@H](O)[C@@H](C)/C=C/C=C/C=C/C=C/C=C/C=C/C=C/[C@H](O[C@@H]2O[C@H](C)[C@@H](O)[C@H](N)[C@@H]2O)C[C@@H]2O[C@](O)(C[C@@H](O)C[C@@H](O)[C@H](O)CC[C@@H](O)C[C@@H](O)CC(=O)O[C@H]1C)C[C@H](O)[C@H]2C(=O)O" , thanks.
Result: 0.985

Q: Same thing, different molecule: CCCCCCCCCC(=O)NC1C(Oc2c3cc4cc2Oc2ccc(cc2Cl)C(OC2OC(CO)C(O)C(O)C2NC(C)=O)C2NC(=O)C(NC(=O)C4NC(=O)C4NC(=O)C(Cc5ccc(c(Cl)c5)O3)NC(=O)C(N)c3ccc(O)c(c3)Oc3cc(O)cc4c3)c3ccc(O)c(c3)-c3c(OC4OC(CO)C(O)C(O)C4O)cc(O)cc3C(C(=O)O)NC2=O)OC(CO)C(O)C1O (stereo unspecified)
Result: 0.155

Q: Another molecule: "CN(C)CCN(Cc1ccccc1)c1ccccn1"
Result: 0.0331

Q: Would you mind doing "Clc1ccccc1C(c1ccccc1)(c1ccccc1)n1ccnc1" as well?
Result: 3.85

====

Tested on: HGGX6 (H3.3 G34R paediatric high-grade glioma line)
Assay: growth inhibition (% activity, log2 RLU normalised to DMSO / staurosporine); higher = more growth inhibition
Conditions: 33 µM
Reported Metric: growth inhibition (%)
Numbers only here, please. The scale is %.

Q: Which growth inhibition is listed for "CNC(=C[N+](=O)[O-])NCCSCc1csc(CN(C)C)n1" ?
Result: 0.506

Q: Also need "CN(C)C(=N)NC(=N)N" , thanks.
Result: -0.131

Q: Now consider "CC(C)(CO)[C@@H](O)C(=O)NCCC(=O)O" and answer again.
Result: -0.397

Q: Try this compound too: CN1c2cc(O)c(N=NC(N)=O)cc2CC1S(=O)(=O)O (configuration not stated)
Result: 0.668

Q: Then "O=c1[nH]c(=O)n([C@H]2C[C@H](O)[C@@H](CO)O2)cc1C(F)(F)F" ?
Result: -0.706

Q: Here is the next compound: "CCC[C@H](N[C@@H](C)C(=O)N1[C@H](C(=O)O)C[C@@H]2CCCC[C@@H]21)C(=O)OCC"
Result: 2.59

Q: What do you get for CN(N=O)C(=O)N[C@H]1C(O)O[C@H](CO)[C@@H](O)[C@@H]1O (mixture of isomers) ?
Result: 2.69

====

Test system: DIPGX7
Assay: growth inhibition (% activity, log2 RLU normalised to DMSO / staurosporine); higher = more growth inhibition
Conditions: 33 µM
Reported Metric: growth inhibition (%)
Please state the figure in %; there is no need to write the unit.

Q: Would you kindly share the measured growth inhibition for "C=C1c2cccc(O)c2C(O)=C2C(=O)[C@]3(O)C(O)=C(C(N)=O)C(=O)[C@@H](N(C)C)[C@@H]3[C@@H](O)[C@H]12" ?
Result: -0.0391

Q: Now give it for "O=c1c(-c2ccc(O)cc2)coc2cc(O)cc(O)c12" too.
Result: 2.16

Q: Can you handle "Cn1c(=O)c2c(ncn2CC2OCCO2)n(C)c1=O" next?
Result: 0.989

Q: Same read-out for "C=CC[N+]1([C@H]2C[C@H]3[C@@H]4CC[C@H]5C[C@H](O)[C@@H](N6CCOCC6)C[C@]5(C)[C@H]4CC[C@]3(C)[C@H]2OC(C)=O)CCCC1" ?
Result: 1.36

Q: Ok, now "Cc1noc(NS(=O)(=O)c2ccc(N)cc2)c1C"
Result: -0.198

Q: Now consider "CC/C(=C(/CC)c1ccc(O)cc1)c1ccc(O)cc1" .
Result: 1.61

Q: Record: Clc1ccc(C(Cn2ccnc2)OCc2csc3c(Cl)cccc23)c(Cl)c1 (configuration not stated)
Result: 1.45

====

Kindly supply the reported growth inhibition values for the records listed here.
Tested on: SUDIPGIV (diffuse intrinsic pontine glioma line)
Assay: growth inhibition (% activity, log2 RLU normalised to DMSO / staurosporine); higher = more growth inhibition
Details: 33 µM
Your reply should be a number followed by the unit it is expressed in.

Q: I would be grateful if you could share the reported growth inhibition for Clc1ccc(CCC(Cn2ccnc2)Sc2c(Cl)cccc2Cl)cc1 (stereo not drawn) .
Result: 13.5%

Q: Also "Nc1ccc(/N=N/c2ccccc2)c(N)n1" , if possible.
Result: -2.91%

Q: Same again, this time with "COc1cc(/C=C/C(=O)N2CCN(CC(=O)N3CCCC3)CC2)cc(OC)c1OC"
Result: 0.556%

Values from the supplement of paper PMC8253809
